TESTED_ON: UniProtKB P08709
Sequence (P08709 213-466 limits assumed): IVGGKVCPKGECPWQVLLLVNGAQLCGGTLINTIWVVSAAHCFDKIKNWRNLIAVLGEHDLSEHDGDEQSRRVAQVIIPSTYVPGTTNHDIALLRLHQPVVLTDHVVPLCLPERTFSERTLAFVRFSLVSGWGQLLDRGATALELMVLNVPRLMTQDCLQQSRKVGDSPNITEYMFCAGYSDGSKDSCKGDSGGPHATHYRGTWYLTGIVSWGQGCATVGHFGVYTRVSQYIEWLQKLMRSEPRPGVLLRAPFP
Sequence (P08709 61-212 limits assumed): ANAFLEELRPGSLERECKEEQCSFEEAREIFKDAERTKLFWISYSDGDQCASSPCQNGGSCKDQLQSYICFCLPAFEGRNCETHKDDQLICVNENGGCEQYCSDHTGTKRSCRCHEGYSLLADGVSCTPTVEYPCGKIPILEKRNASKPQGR
Sequence (P13726 33-295 partner): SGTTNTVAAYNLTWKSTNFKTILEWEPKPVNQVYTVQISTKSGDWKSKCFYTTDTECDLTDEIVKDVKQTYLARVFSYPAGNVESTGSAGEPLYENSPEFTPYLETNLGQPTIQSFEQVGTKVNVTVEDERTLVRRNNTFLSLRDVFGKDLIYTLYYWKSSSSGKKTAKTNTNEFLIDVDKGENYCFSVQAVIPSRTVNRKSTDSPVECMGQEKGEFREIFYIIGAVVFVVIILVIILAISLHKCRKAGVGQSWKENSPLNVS
Record form. Attribute: pIC50. Fill in for each entry.
# log scale: pIC50 equals minus log10 of the concentration in mol/L

(Q) Which pIC50 value belongs to CC(C)CNC(=O)c1ccc(-c2cc3ccccc3cc2C(=O)Nc2ccc(C(=N)N)cc2)c(C(=O)O)c1 [Example 19(47), methanesulfonate] ?
(A) 7.92

(Q) Which pIC50 value belongs to COc1ccc(-c2ccc(C(=O)N[C@H](CO)C(C)(C)C)cc2C(=O)O)c(C(=O)Nc2ccc(C(=N)N)cc2)n1 [Example 46, methanesulfonate] ?
(A) 7.89
